# maps each entry to its Kinetic_solubility
# particulars: buffer, pH 7.4, 24 h, 10000 µM
Enter your answer as a number in µM; do not include the unit.

• O=C(Nc1cnn(Cc2ccccc2)c1)c1n[nH]c2c1CC1CC1C2 (configuration not stated) = 18
• CC1(CO)CCc2c(C(=O)Nc3cnn(Cc4ccccc4)c3)n[nH]c2C1 (configuration not stated) = 83
• COC1(C)CCc2c(C(=O)Nc3cnn(Cc4ccccc4)c3)n[nH]c2C1 (racemic) = 77
• COC1(C)CCc2c(C(=O)Nc3cnn(Cc4ccccc4)c3)n[nH]c2C1 (configuration not stated) = 29
• O=C(Nc1cnn(Cc2ccccc2)c1)c1n[nH]c2c1CCC1(CCOC1)C2 (configuration not stated) = 60
• O=C(Nc1cnn(Cc2ccccc2)c1)c1n[nH]c2c1CCC1(CCOC1)C2 (racemic) = 20

Please turn your attention to the following entry.
Qu. Requested read-out: Kinetic_solubility. Entry: CC12Cc3[nH]nc(C(=O)Nc4cnn(Cc5ccccc5)c4)c3CC1C2 (configuration not stated)
Ans. 1.6

----------
# experimental_protocol: Clearance in Sprague-Dawley rat at 1 mg/kg, iv by LC-MS/MS analysis
# Type: ADME, organism-based
# Parameters: dose 1 mg/kg, route intravenous
# particulars: in vivo
quantity_kind: clearance
Entry format: amount then unit.

Qu. Requested read-out: clearance. Entry: `CN(C)CC[C@@H](c1ccccc1)n1cc(NC(=O)c2n[nH]c3c2CCC(C)(C)C3)cn1`
Ans. 70 mL/min/kg

----------
# experimental_protocol: Oral bioavailability in BALB/c mouse at 50 mg/kg by LC-MS/MS analysis
# Type: ADME, organism-based
# particulars: in vivo
quantity_kind: bioavailability (%)
Enter your answer as a number in %; do not include the unit.

Qu. Requested read-out: bioavailability. Entry: `CN(C)CC[C@@H](c1ccccc1)n1cc(NC(=O)c2n[nH]c3c2CCC(C)(C)C3)cn1`
Ans. 36

----------
# experimental_protocol: AUC in beagle dog at 5 mg/kg, po by LC-MS/MS analysis
# Type: ADME, organism-based, Canis lupus familiaris
# Parameters: dose 5 mg/kg, route oral
# particulars: plasma
quantity_kind: AUC (µM·h)
Enter your answer as a number in µM·h; do not include the unit.

Qu. Requested read-out: AUC. Entry: `CN(C)CC[C@@H](c1ccccc1)n1cc(NC(=O)c2n[nH]c3c2CCC(C)(C)C3)cn1`
Ans. 10

----------
# experimental_protocol: Clearance in beagle dog at 1 mg/kg, iv by LC-MS/MS analysis
# Type: ADME, organism-based, Canis lupus familiaris
# Set-up: dose 1 mg/kg, route intravenous
# particulars: in vivo
quantity_kind: clearance (mL/min/kg)
Enter your answer as a number in mL/min/kg; do not include the unit.

Qu. Requested read-out: clearance. Entry: `CN(C)CC[C@@H](c1ccccc1)n1cc(NC(=O)c2n[nH]c3c2CCC(C)(C)C3)cn1`
Ans. 21

----------
# experimental_protocol: AUC in Sprague-Dawley rat at 5 mg/kg, po by LC-MS/MS analysis
# Format: ADME, organism-based
# Parameters: dose 5 mg/kg, route oral
# particulars: plasma
quantity_kind: AUC
Entry format: amount then unit.

Qu. Requested read-out: AUC. Entry: `CN(C)CC[C@@H](c1ccccc1)n1cc(NC(=O)c2n[nH]c3c2CCC(C)(C)C3)cn1`
Ans. 1100 nM·h
